target: equine FcRn (large alpha subunit p51) / equine beta-2-microglobulin complex, biotinylated (equine) (UniProt P30441); test: SPR (Biacore), pH 6
Give Kd for every item shown.
One number for each entry, in nM.

query: Which Kd value belongs to equine IgG1 M428K (antibody, part only; not given: variable domains, not shown: another chain or arm of the molecule) constant: ASTTAPKVFALAPGCGTTSDSTVALGCLVSGYFPEPVKVSWNSGSLTSGVHTFPSVLQSSGFYSLSSMVTVPASTWTSETYICNVVHAASNFKVDKRIEPIPDNHQKVCDMSKCPKCPAPELLGGPSVFIFPPNPKDTLMITRTPEVTCVVVDVSQENPDVKFNWYMDGVEVRTATTRPKEEQFNSTYRVVSVLRIQHQDWLSGKEFKCKVNNQALPQPIERTITKTKGRSQEPQVYVLAPHPDELSKSKVSVTCLVKDFYPPEINIEWQSNGQPELETKYSTTQAQQDSDGSYFLYSKLSVDRNRWQQGTTFTCGVKHEALHNHYTQKNVSKNPGK ?
result: 28.7

New cases:
query: Given equine IgG4 K311I (antibody, part only; not given: variable domains, not shown: another chain or arm of the molecule; small tags and cut ends) constant: ASTTAPKVFPLASHSAATSGSTVALGCLVSSYFPEPVTVSWNSGALTSGVHTFPSVLQSSGLYSLSSMVTVPASSLKSQTYICNVAHPASSTKVDKKIVIKECNGGCPAECLQVGPSVFIFPPKPKDVLMISRTPTVTCVVVDVGHDFPDVQFNWYVDGVETHTATTEPKQEQFNSTYRVVSVLPIQHIDWLSGKEFKCKVNNKALPAPVERTISKPTGQPREPQVYVLAPHRDELSKNKVSVTCLVKDFYPTDIDIEWKSNGQPEPETKYSTTPAQLDSDGSYFLYSKLTVETNRWQQGTTFTCAVMHEALHNHYTEKSVSKSPGK , state its recorded Kd.
result: 30.6
